Molecular target: ~100 representative kinases (Homo sapiens, UniProt O15164)
Construct: Recombinant protein kinase domains with a concentration of 2 μM
Sequence (O15164 whole entry, the tested form may be a part): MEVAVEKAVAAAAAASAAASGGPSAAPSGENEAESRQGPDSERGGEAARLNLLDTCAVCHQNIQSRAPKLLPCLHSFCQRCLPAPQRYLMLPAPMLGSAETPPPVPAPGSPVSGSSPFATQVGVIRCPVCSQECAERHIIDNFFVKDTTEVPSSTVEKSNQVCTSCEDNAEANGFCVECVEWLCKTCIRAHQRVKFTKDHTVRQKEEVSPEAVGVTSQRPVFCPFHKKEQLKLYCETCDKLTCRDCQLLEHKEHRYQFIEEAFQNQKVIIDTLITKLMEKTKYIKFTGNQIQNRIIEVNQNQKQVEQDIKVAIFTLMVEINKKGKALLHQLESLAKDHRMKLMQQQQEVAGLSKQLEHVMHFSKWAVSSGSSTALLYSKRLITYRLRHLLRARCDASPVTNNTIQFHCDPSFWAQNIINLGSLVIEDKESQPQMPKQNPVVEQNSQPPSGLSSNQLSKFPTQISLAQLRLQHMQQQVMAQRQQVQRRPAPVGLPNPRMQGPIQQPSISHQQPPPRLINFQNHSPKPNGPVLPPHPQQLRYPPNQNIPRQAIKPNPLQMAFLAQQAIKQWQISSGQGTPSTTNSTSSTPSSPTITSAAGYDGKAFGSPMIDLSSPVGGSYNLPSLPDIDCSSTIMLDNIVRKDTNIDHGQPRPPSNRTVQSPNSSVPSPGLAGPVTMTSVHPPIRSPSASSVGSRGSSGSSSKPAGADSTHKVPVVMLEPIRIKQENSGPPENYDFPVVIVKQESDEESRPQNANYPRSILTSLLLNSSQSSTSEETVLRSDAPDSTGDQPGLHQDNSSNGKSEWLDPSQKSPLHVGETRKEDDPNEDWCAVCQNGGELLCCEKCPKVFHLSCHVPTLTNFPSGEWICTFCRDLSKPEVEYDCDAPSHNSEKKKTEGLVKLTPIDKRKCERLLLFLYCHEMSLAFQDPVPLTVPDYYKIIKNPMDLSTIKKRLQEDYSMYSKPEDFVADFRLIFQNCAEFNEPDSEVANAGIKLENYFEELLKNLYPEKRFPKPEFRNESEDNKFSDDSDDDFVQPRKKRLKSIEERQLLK
Test: DSF 100 kinase selectivity screen;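 also: compound tested at 20 µM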
Assay type: binding
Conditions: Protein TIF1; DSF; average of three replicates
Labelling: dTm reported below 0.08 K becomes MET; at or above becomes NOT MET.

Completed entries (count: 2):
- compound: "O=C(Nc1cccc(-c2c[nH]c3ncnc(N4CCOCC4)c23)c1)C1(C(=O)Nc2ccc(F)c(Br)c2)CC1 [Compound 19]"
  class: "NOT MET"
- compound: "CCNc1nc(Nc2cc(F)c(C(=O)N3CCOCC3)cc2OC)ncc1C(F)(F)F [GNE-7915]"
  class: "MET"

API: query returns whether the compound falls strictly under 0.08 K in dTm. Query: O=C(Nc1cccc(-c2c[nH]c3ncnc(N4CCOCC4)c23)c1)C1(C(=O)Nc2ccc(F)c(Br)c2F)CC1 [Compound 26]
NOT MET

Please state whether dTm is below 0.08 K for Cc1ccc(C(=O)Nc2ccc(CN3CCN(C)CC3)c(C(F)(F)F)c2)cc1C#Cc1cnc2cccnn12 [Ponatinib, reference compound]
MET

# TODO verify dTm < 0.08 K strictly for this compound: CNC(=O)c1cc(Oc2ccc(NC(=O)Nc3cc(C(C)(C)C)nn3-c3ccc4ncccc4c3)c(F)c2)ccn1 [Rebastinib, reference compound]
NOT MET

* * *

Target: ~100 representative kinases (Homo sapiens, UniProt O95747)
Construct: Recombinant protein kinase domains with a concentration of 2 μM
Sequence (O95747 whole entry, the tested form may be a part): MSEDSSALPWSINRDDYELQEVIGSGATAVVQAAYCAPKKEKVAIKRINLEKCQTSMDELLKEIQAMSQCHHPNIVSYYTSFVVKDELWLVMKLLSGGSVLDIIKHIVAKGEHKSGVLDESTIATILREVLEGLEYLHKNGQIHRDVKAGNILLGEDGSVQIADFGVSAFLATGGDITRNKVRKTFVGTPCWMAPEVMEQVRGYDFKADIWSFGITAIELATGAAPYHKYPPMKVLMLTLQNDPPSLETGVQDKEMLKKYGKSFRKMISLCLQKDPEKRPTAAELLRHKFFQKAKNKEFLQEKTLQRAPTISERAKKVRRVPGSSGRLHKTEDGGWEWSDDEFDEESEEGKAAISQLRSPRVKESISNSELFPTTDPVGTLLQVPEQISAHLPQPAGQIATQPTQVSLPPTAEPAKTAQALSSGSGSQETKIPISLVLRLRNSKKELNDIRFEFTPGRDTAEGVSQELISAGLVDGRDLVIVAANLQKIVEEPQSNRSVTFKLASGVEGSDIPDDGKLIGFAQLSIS
Experiment: DSF 100 kinase selectivity screen;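 also: compound tested at 20 µM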
Format: binding
Settings: protein OSR1; average of three replicates
Labelling field: enter criterion met if recorded dTm is less than 1 K. Enter criterion not met if it equals or exceeds that cut-off.

Consider the following illustrative entries.
- molecule: "COc1cc(NC(=O)C2(C(=O)Nc3cccc(-c4c[nH]c5ncnc(N6CCOCC6)c45)c3)CC2)ccc1F [Compound 21]"
  class: "criterion not met"
- molecule: "Cc1cc(NC(=O)C2(C(=O)Nc3ccc(F)cc3)CC2)cc(-c2c[nH]c3ncnc(N4CCOCC4)c23)c1 [Compound 6]"
  class: "criterion met"
- molecule: "Cc1ccc(C(=O)Nc2ccc(CN3CCN(C)CC3)c(C(F)(F)F)c2)cc1C#Cc1cnc2[nH]ncc2c1 [GZD-824, reference compound]"
  class: "criterion met"
- molecule: "O=C(Nc1cccc(-c2c[nH]c3ncnc(N4CCOCC4)c23)c1)C1(C(=O)Nc2ccc(F)c(Br)c2)CC1 [Compound 19]"
  class: "criterion not met"

# TODO verify dTm < 1 K strictly for this molecule: CCc1ccc(NC(=O)C2(C(=O)Nc3cccc(-c4c[nH]c5ncnc(N6CCOCC6)c45)c3)CC2)cc1 [Compound 15]
criterion met

Quick check: dTm of Cc1cc(NC(=O)C2(C(=O)Nc3cccc(-c4c[nH]c5ncnc(N6CCOCC6)c45)c3)CC2)ccc1F [Compound 20] under 1 K?
criterion not met

Confirm or reject: dTm of O=C(Nc1cccc(-c2c[nH]c3ncnc(N4CCOCC4)c23)c1)C1(C(=O)Nc2cccc3c2CCC3)CC1 [Compound 11] lies strictly below 1 K
criterion met

Please let me know if Cc1ccc(NC(=O)C2(C(=O)Nc3cccc(-c4c[nH]c5ncnc(N6CCOCC6)c45)c3)CC2)cc1 [Compound 14] shows dTm below 1 K.
criterion not met

State whether 1 K exceeds dTm recorded for O=C(Nc1cc(F)cc(Br)c1)C1(C(=O)Nc2cccc(-c3c[nH]c4ncnc(N5CCOCC5)c34)c2)CC1 [Compound 27] .
criterion met

Just wondering, is dTm of CCNc1nc(Nc2cc(F)c(C(=O)N3CCOCC3)cc2OC)ncc1C(F)(F)F [GNE-7915] below 1 K?
criterion met

* * *

Biological target: ~100 representative kinases (Homo sapiens, UniProt Q13554)
Construct: Recombinant protein kinase domains with a concentration of 2 μM
Sequence (Q13554 whole entry, the tested form may be a part): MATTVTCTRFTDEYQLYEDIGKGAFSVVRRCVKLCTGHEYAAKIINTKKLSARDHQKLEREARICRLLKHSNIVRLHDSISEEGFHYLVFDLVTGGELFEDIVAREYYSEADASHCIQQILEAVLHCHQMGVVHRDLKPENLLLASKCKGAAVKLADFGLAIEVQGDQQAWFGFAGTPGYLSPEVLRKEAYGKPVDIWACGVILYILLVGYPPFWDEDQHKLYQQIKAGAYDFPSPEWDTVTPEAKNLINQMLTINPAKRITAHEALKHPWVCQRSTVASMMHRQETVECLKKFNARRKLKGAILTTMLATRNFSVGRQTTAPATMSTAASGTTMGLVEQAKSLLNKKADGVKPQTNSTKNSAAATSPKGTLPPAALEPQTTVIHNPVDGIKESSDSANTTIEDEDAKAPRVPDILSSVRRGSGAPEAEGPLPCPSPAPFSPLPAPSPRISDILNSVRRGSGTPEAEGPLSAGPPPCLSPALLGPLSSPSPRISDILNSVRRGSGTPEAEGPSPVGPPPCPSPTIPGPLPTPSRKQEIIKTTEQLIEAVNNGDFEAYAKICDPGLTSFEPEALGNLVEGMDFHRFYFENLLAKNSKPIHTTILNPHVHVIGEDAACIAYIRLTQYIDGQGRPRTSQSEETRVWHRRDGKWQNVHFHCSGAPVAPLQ
Assay: DSF 100 kinase selectivity screen;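 also: compound tested at 20 µM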
Type: binding
Conditions: Protein CAMK2B; average of three replicates
Returns Condition met if the recorded dTm is greater than or equal to 0.1 K, and Condition not met otherwise.

Look over these answered cases.
- compound: "Cc1ccc(-n2nc(C(C)(C)C)cc2NC(=O)Nc2cccc(-c3c[nH]c4nc(Cl)nc(N5CCOCC5)c34)c2)cc1"
  class: "Condition not met"
- compound: "O=C(Nc1cccc(-c2c[nH]c3ncnc(N4CCOCC4)c23)c1)C1(C(=O)Nc2ccc(F)c(F)c2)CC1"
  class: "Condition met"
- compound: "CNC(=O)c1cc(Oc2ccc(NC(=O)Nc3cc(C(C)(C)C)nn3-c3ccc4ncccc4c3)c(F)c2)ccn1 [Rebastinib, reference compound]"
  class: "Condition met"
- compound: "Cc1ccc(C(=O)Nc2ccc(CN3CCN(C)CC3)c(C(F)(F)F)c2)cc1C#Cc1cnc2[nH]ncc2c1 [GZD-824, reference compound]"
  class: "Condition met"
- compound: "O=C(Nc1ccc(Cl)cc1)C1(C(=O)Nc2cccc(-c3c[nH]c4ncnc(N5CCOCC5)c34)c2)CC1"
  class: "Condition met"
- compound: "Cn1cc(-c2c[nH]c3ncnc(N4CCOCC4)c23)cc1C#N"
  class: "Condition not met"

Alright, here's another compound for you.
Record O=C(Nc1cccc(-c2c[nH]c3ncnc(N4CCOCC4)c23)c1)C1(C(=O)Nc2ccc(F)c(Br)c2)CC1 ; criterion: dTm no lower than 0.1 K. Met?
Condition met

* * *

Provide the reported dTm of each item.
Target: ~100 representative kinases (Homo sapiens)
Construct: Recombinant protein kinase domains with a concentration of 2 μM
Assay: DSF 100 kinase selectivity screen;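 also: compound tested at 20 µM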
Type: binding
Details: Protein STK38L; DSF; average of three replicates
Numbers only, in K.

Please review the following examples before continuing.
- compound: "COc1cc(NC(=O)C2(C(=O)Nc3cccc(-c4c[nH]c5ncnc(N6CCOCC6)c45)c3)CC2)ccc1F [Compound 21]"
  target-entity: "~100 representative kinases (Homo sapiens)"
  dTm [K]: -0.18
- compound: "CCNc1nc(Nc2cc(F)c(C(=O)N3CCOCC3)cc2OC)ncc1C(F)(F)F [GNE-7915]"
  target-entity: "~100 representative kinases (Homo sapiens)"
  dTm [K]: 0.75
- compound: "Cc1cc(NC(=O)C2(C(=O)Nc3cccc(-c4c[nH]c5ncnc(N6CCOCC6)c45)c3)CC2)ccc1F [Compound 20]"
  target-entity: "~100 representative kinases (Homo sapiens)"
  dTm [K]: 0.36
- compound: "O=C(Nc1ccccc1)C1(C(=O)Nc2cccc(-c3c[nH]c4ncnc(N5CCOCC5)c34)c2)CC1 [Compound 12]"
  target-entity: "~100 representative kinases (Homo sapiens)"
  dTm [K]: 0.29
- compound: "Cc1ccc(NC(=O)C2(C(=O)Nc3cccc(-c4c[nH]c5ncnc(N6CCOCC6)c45)c3)CC2)cc1 [Compound 14]"
  target-entity: "~100 representative kinases (Homo sapiens)"
  dTm [K]: 0.07

Field: dTm. Fill in for each record below.
1. COc1ccc(NC(=O)C2(C(=O)Nc3cccc(-c4c[nH]c5ncnc(N6CCOCC6)c45)c3)CC2)cc1 [Compound 16]
2. COc1cc(C(=O)N2CCOCC2)c(F)cc1Nc1nc(N(C)C)c2c(Cl)c[nH]c2n1 [Compound 36]

1. -0.19
2. -1.36

* * *

Target: ~100 representative kinases (Homo sapiens, UniProt P45985)
Construct: Recombinant protein kinase domains with a concentration of 2 μM
Sequence (P45985 whole entry, the tested form may be a part): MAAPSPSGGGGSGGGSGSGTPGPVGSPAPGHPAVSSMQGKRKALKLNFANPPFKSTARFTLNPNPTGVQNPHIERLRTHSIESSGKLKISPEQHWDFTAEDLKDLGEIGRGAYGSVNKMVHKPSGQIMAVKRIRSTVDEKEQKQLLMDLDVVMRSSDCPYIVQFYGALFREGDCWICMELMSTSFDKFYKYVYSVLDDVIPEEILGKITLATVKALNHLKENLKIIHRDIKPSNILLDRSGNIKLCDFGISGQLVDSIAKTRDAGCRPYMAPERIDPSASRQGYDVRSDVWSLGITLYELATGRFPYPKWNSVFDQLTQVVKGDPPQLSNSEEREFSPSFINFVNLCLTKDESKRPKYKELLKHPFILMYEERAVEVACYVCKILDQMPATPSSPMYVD
Assay: DSF 100 kinase selectivity screen;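 also: compound tested at 20 µM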
Assay type: binding
Conditions: protein MAP2K4; average of three replicates
Binning rule for recorded dTm: lowest = under 5 K, middle = from 5 K up to 6 K, highest = 6 K and over

Below, 5 molecules whose answers are already recorded.
- molecule: "O=C(Nc1cccc(-c2c[nH]c3ncnc(N4CCOCC4)c23)c1)C1(C(=O)Nc2ccc(F)c(Br)c2F)CC1"
  class: "middle"
- molecule: "CC(=O)N1CCN(c2nc(Cl)nc3[nH]cc(-c4cccc(NC(=O)Nc5cc(C(C)(C)C)nn5-c5ccc(C)cc5)c4)c23)CC1"
  class: "lowest"
- molecule: "COc1cc(C(=O)N2CCOCC2)c(F)cc1Nc1nc(N(C)C)c2c(Cl)c[nH]c2n1"
  class: "highest"
- molecule: "O=C(Nc1ccc(Cl)cc1)C1(C(=O)Nc2cccc(-c3c[nH]c4ncnc(N5CCOCC5)c34)c2)CC1"
  class: "highest"
- molecule: "Cc1ccc(-n2nc(C(C)(C)C)cc2NC(=O)Nc2cccc(-c3c[nH]c4ncnc(N5CCOCC5)c34)c2)cc1"
  class: "middle"

Any idea which band O=C(Nc1cccc(-c2c[nH]c3ncnc(N4CCOCC4)c23)c1)C1(C(=O)Nc2ccc(F)cc2F)CC1 is in?
middle

Dear colleague, I would appreciate it if you could identify the bin for Cc1cc(NC(=O)C2(C(=O)Nc3ccc(F)cc3)CC2)cc(-c2c[nH]c3ncnc(N4CCOCC4)c23)c1 and reply at your convenience.
lowest

Class (by measured dTm) for Cc1cc(F)ccc1NC(=O)C1(C(=O)Nc2cccc(-c3c[nH]c4ncnc(N5CCOCC5)c34)c2)CC1
middle

Form field 'band' for CCc1ccc(NC(=O)C2(C(=O)Nc3cccc(-c4c[nH]c5ncnc(N6CCOCC6)c45)c3)CC2)cc1
highest

Just checking, what class would you give O=C(Nc1cc(F)cc(Br)c1)C1(C(=O)Nc2cccc(-c3c[nH]c4ncnc(N5CCOCC5)c34)c2)CC1 here?
middle

Each molecule maps to one class by dTm. Which class for CNC(=O)c1cc(Oc2ccc(NC(=O)Nc3cc(C(C)(C)C)nn3-c3ccc4ncccc4c3)c(F)c2)ccn1 [Rebastinib, reference compound] ?
lowest
